# Test system: S. pyogenes C721
# assayDetails: MIC by microtitre broth dilution
# Assay type: cell-based
# conditionParameters: Gram+, wt; Todd Hewitt broth, 37° C, 24h
experimentalReadout: Minimum inhibitory concentration

The cases that follow already have their Minimum inhibitory concentration on record.
CN(Cc1cnc2nc(N)nc(N)c2n1)c1ccc(C(=O)N[C@@H](CCC(=O)O)C(=O)O)cc1 [methotrexate] :: 10^−6 Molar
Nc1ncnc2c1ccn2[C@@H]1O[C@H](CO)[C@@H](O)[C@H]1O :: N
CC[C@@]1(O)C(=O)OCc2c1cc1n(c2=O)Cc2cc3ccccc3nc2-1 :: N
N.N.[Cl][Pt][Cl] [cisplatin] :: N

Read off the recorded Minimum inhibitory concentration for NC(=O)NO [hydroxyurea]
10^−4 Molar

Return Minimum inhibitory concentration for the following compound: "COc1cccc2c1C(=O)c1c(O)c3c(c(O)c1C2=O)C[C@@](O)(C(=O)CO)C[C@@H]3O[C@H]1C[C@H](N)[C@H](O)[C@H](C)O1"
10^−7 Molar
